molecular target: human mGluR3 (hmGluR3) (Homo sapiens); assay: Human mGluR3 positive allosteric modulator evaluation using Ca++ functional assay; conditions: hmGluR3 transiently over-expressed in HEK-293 cells; stimulated by EC50 glutamate concentration; intracellular Ca2+ (Fluo4AM, FLIPR Tetra)
Sequence (Q14832 23-879): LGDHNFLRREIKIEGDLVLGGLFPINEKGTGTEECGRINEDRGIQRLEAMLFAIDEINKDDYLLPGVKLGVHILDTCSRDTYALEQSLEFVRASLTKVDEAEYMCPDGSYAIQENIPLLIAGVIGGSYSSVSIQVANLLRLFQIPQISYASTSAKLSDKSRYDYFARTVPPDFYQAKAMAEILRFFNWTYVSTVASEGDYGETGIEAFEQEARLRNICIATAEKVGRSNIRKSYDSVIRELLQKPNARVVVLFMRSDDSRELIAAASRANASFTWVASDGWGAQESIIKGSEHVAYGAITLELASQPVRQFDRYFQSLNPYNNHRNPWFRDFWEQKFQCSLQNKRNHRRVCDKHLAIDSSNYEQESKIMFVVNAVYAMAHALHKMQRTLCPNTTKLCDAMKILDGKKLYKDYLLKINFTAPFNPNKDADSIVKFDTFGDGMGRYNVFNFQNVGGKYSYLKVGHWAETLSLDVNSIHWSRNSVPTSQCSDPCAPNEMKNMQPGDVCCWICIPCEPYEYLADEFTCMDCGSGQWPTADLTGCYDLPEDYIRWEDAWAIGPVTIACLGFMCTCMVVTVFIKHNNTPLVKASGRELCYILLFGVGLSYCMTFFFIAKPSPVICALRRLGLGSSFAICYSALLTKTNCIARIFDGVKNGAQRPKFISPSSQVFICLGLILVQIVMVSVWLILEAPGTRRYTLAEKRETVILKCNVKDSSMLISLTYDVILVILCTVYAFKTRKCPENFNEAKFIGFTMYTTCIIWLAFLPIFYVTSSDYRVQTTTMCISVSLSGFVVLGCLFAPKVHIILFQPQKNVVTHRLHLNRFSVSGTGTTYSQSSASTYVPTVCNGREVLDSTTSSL
Reported EC50 values for the following molecules.
Reported metric: EC50

>  <Molecule>
CN1C(=O)c2cccn2-c2cc(-c3ccc(N4CCCCC4)nc3)ccc2C12CC2 [Example 43]

>  <Reported metric>
EC50

>  <Observed result>
> 1000 nM

$$$$
>  <Molecule>
Cc1ccnc(C)c1-c1ccc2c(c1)-n1cccc1C(=O)N(C)C21CC1 [Example 65]

>  <Reported metric>
EC50

>  <Observed result>
> 1000 nM

$$$$
>  <Molecule>
CN1C(=O)c2cccn2-c2cc(-c3ccc4nccn4c3)ccc2C12CC2 [Example 41]

>  <Reported metric>
EC50

>  <Observed result>
< 100 nM

$$$$
>  <Molecule>
Cc1cc(-c2ccc3c(c2)-n2cc(-c4ccccc4)cc2C(=O)N(C)C32CC2)ccn1 [Example 105]

>  <Reported metric>
EC50

>  <Observed result>
100 to 1000 nM

$$$$

---

Structures can show the parent of a compound that is named as a salt.
Reported melting point values for the following compounds.
Reported metric: melting point

>  <Compound>
Cc1cc2n(c1)-c1cc(-c3cccnc3C)ccc1C1(CC1)N(C)C2=O (as salt: hydrochloride)

>  <Reported metric>
melting point

>  <Observed result>
162 to 175 °C

$$$$
>  <Compound>
Cc1ncncc1-c1ccc2c(c1)-n1cccc1C(=O)N(C)C21CC1 (as salt: hydrochloride)

>  <Reported metric>
melting point

>  <Observed result>
140 to 147 °C

$$$$
>  <Compound>
Cc1n[nH]c(C)c1-c1ccc2c(c1)-n1cccc1C(=O)N(C)C21CC1

>  <Reported metric>
melting point

>  <Observed result>
115 to 125 °C

$$$$
>  <Compound>
Cc1ncccc1-c1ccc2c(c1)-n1cc(-c3ccccc3)nc1C(=O)N(C)C2 (as salt: hydrochloride)

>  <Reported metric>
melting point

>  <Observed result>
240 to 245 °C

$$$$
>  <Compound>
CN1C(=O)c2cccn2-c2cc(CC#N)ccc2C12CC2

>  <Reported metric>
melting point

>  <Observed result>
60 to 69 °C

$$$$
>  <Compound>
Cc1ccnc(C)c1-c1ccc2c(c1)-n1cccc1C(=O)N(C)C21CC1 (as salt: hydrochloride)

>  <Reported metric>
melting point

>  <Observed result>
200 to 208 °C

$$$$
>  <Compound>
CN1C(=O)c2cc(-c3nnco3)cn2-c2cc(-c3cccnn3)ccc2C12CC2

>  <Reported metric>
melting point

>  <Observed result>
> 250 °C

$$$$
>  <Compound>
Cc1ncccc1-c1cc2c(cc1F)C1(CC1)N(C)C(=O)c1cccn1-2 (as salt: hydrochloride)

>  <Reported metric>
melting point

>  <Observed result>
200 to 210 °C

$$$$
>  <Compound>
CCc1ncccc1-c1ccc2c(c1)-n1cc(-c3ccccc3F)cc1C(=O)N(C)C21CC1 (as salt: hydrochloride)

>  <Reported metric>
melting point

>  <Observed result>
189 to 195 °C

$$$$
>  <Compound>
Cc1ncccc1-c1ccc2c(c1)-n1cc(-c3ccncc3)cc1C(=O)N(C)C21CC1 (as salt: hydrochloride)

>  <Reported metric>
melting point

>  <Observed result>
> 250 °C

$$$$
>  <Compound>
CN(C)c1ncccc1-c1ccc2c(c1)-n1cc(-c3ccccc3)cc1C(=O)N(C)C21CC1 (as salt: hydrochloride)

>  <Reported metric>
melting point

>  <Observed result>
209 to 213 °C

$$$$
>  <Compound>
[2H]C([2H])([2H])N1C(=O)c2cc(-c3nnco3)cn2-c2cc(-c3ccc(F)nc3)ccc2C12CC2

>  <Reported metric>
melting point

>  <Observed result>
> 250 °C

$$$$
>  <Compound>
CN1C(=O)c2ccc(-c3ccnn3C)n2-c2cc(-c3ccc(F)cn3)ccc2C12CC2

>  <Reported metric>
melting point

>  <Observed result>
143 to 166 °C

$$$$
>  <Compound>
[2H]C([2H])([2H])N1C(=O)c2cc(C(=O)O)cn2-c2cc(-c3ccc(F)nc3)ccc2C12CC2

>  <Reported metric>
melting point

>  <Observed result>
> 250 °C

$$$$
>  <Compound>
Cc1ncccc1-c1ccc2c(c1)-n1cc(-c3ccccc3)nc1C(=O)N(C)C21CC1 (as salt: hydrochloride)

>  <Reported metric>
melting point

>  <Observed result>
235 to 240 °C

$$$$
>  <Compound>
CN1C(=O)c2cccn2-c2cc(CCC#N)ccc2C12CC2

>  <Reported metric>
melting point

>  <Observed result>
59 to 64 °C

$$$$
>  <Compound>
CN1C(=O)c2cc(-c3ccccc3)cn2-c2cc(-c3ccccn3)ccc2C12CC2 (as salt: hydrochloride)

>  <Reported metric>
melting point

>  <Observed result>
185 to 198 °C

$$$$
>  <Compound>
CCc1ncccc1-c1ccc2c(c1)-n1cc(C)cc1C(=O)N(C)C21CC1 (as salt: hydrochloride)

>  <Reported metric>
melting point

>  <Observed result>
179 to 184 °C

$$$$
>  <Compound>
Cc1ncccc1-c1ccc2c(c1)-n1cc(C(=O)C3CCCC3)cc1C(=O)N(C)C21CC1 (as salt: hydrochloride)

>  <Reported metric>
melting point

>  <Observed result>
177 to 190 °C

$$$$

---

target: human mGluR3 (hmGluR3) (Homo sapiens); experiment: Human mGluR3 positive allosteric modulator evaluation using Ca++ functional assay; conditions: hmGluR3 transiently over-expressed in HEK-293 cells; stimulated by EC50 glutamate concentration; intracellular Ca2+ (Fluo4AM, FLIPR Tetra)
Reported EC50 values for the following molecules.
Reported metric: EC50

>  <Molecule>
Cc1ncccc1-c1ccc2c(c1)N1CCCC1C(=O)N(C)C21CC1 (stereo not drawn)

>  <Reported metric>
EC50

>  <Observed result>
> 1000 nM

$$$$
>  <Molecule>
CCc1ncccc1-c1ccc2c(c1)-n1cc(-c3ccccc3)cc1C(=O)N(C)C21CC1

>  <Reported metric>
EC50

>  <Observed result>
100 to 1000 nM

$$$$
>  <Molecule>
CN1C(=O)c2cc(-c3ccccc3)cn2-c2cc(-c3cnccn3)ccc2C12CC2

>  <Reported metric>
EC50

>  <Observed result>
100 to 1000 nM

$$$$
>  <Molecule>
Cc1cc2n(c1)-c1cc(-c3ccc(C)nc3)ccc1C1(CC1)N(C)C2=O

>  <Reported metric>
EC50

>  <Observed result>
< 100 nM

$$$$
>  <Molecule>
Cc1nccnc1-c1ccc2c(c1)-n1cccc1C(=O)N(C)C21CC1

>  <Reported metric>
EC50

>  <Observed result>
> 1000 nM

$$$$
>  <Molecule>
Cc1ncccc1-c1ccc2c(c1)-n1cc(C#N)cc1C(=O)N(C)C21CC1

>  <Reported metric>
EC50

>  <Observed result>
100 to 1000 nM

$$$$
>  <Molecule>
Cc1ncccc1-c1ccc2c(c1)-n1nccc1C(=O)N(C)C2

>  <Reported metric>
EC50

>  <Observed result>
> 1000 nM

$$$$
>  <Molecule>
Cc1ncccc1-c1ccc2c(c1)-n1cc(-c3nnco3)cc1C(=O)N(C)C21CC1

>  <Reported metric>
EC50

>  <Observed result>
< 100 nM

$$$$
>  <Molecule>
Cc1cncc(-c2ccc3c(c2)-n2cc(-c4ccccc4)cc2C(=O)N(C)C32CC2)c1

>  <Reported metric>
EC50

>  <Observed result>
100 to 1000 nM

$$$$

---

target: human mGluR3 (hmGluR3) (Homo sapiens); test: Human mGluR3 positive allosteric modulator evaluation using Ca++ functional assay; conditions: hmGluR3 transiently over-expressed in HEK-293 cells; stimulated by EC50 glutamate concentration; intracellular Ca2+ (Fluo4AM, FLIPR Tetra)
Reported EC50 values for the following compounds.

>  <Compound>
COCN1C(=O)c2cccn2-c2cc(-c3cccnc3C)ccc2C12CC2 [Example 21]

>  <EC50>
> 1000 nM

$$$$
>  <Compound>
CN1C(=O)c2cccn2-c2cc(-c3cccnc3C(C)(C)O)ccc2C12CC2 [Example 72]

>  <EC50>
> 1000 nM

$$$$
>  <Compound>
Cc1ncccc1-c1ccc2c(c1)-n1cc(N(C)C)cc1C(=O)N(C)C21CC1 [Example 154]

>  <EC50>
100 to 1000 nM

$$$$
>  <Compound>
Cc1ncccc1-c1ccc2c(c1)-n1cc(-c3cccnc3)cc1C(=O)N(C)C21CC1 [Example 143]

>  <EC50>
< 100 nM

$$$$
>  <Compound>
Cc1ncccc1-c1ccc2c(c1)-n1cc(-c3cccc(F)c3)cc1C(=O)N(C)C21CC1 [Example 152]

>  <EC50>
< 100 nM

$$$$
>  <Compound>
CN1C(=O)c2cc(-c3ccccc3)nn2-c2cc(-c3ccc(N)cc3)ccc2C12CC2 [Example 124]

>  <EC50>
> 1000 nM

$$$$
>  <Compound>
CN1C(=O)c2cccn2-c2cc(-c3cnc(N)c(C(F)(F)F)c3)ccc2C12CC2 [Example 40]

>  <EC50>
> 1000 nM

$$$$
>  <Compound>
Cc1ncccc1-c1ccc2c(c1)-n1cc(-c3ccc(F)cc3)cc1C(=O)N(C)C21CC1 [Example 150]

>  <EC50>
100 to 1000 nM

$$$$
>  <Compound>
CN1C(=O)c2cc(-c3ccccc3)cn2-c2cc(-c3ccccn3)ccc2C12CC2 [Example 111]

>  <EC50>
< 100 nM

$$$$
>  <Compound>
CC1c2ccc(-c3ccc(N(C)C)nc3)cc2-n2cccc2C(=O)N1C (centres unmarked) [Example 219]

>  <EC50>
< 100 nM

$$$$
>  <Compound>
Cc1cccc2c1-n1cccc1C(=O)N(C)C21CC1 [Example 90]

>  <EC50>
> 1000 nM

$$$$
>  <Compound>
CN1C(=O)c2cccn2-c2cc(-c3ccc(F)cn3)ccc2C12CC2 [Example 63]

>  <EC50>
< 100 nM

$$$$
>  <Compound>
Cc1ncccc1-c1cc2c(cc1F)C1(CC1)N(C)C(=O)c1cccn1-2 [Example 77]

>  <EC50>
100 to 1000 nM

$$$$
>  <Compound>
CN1C(=O)c2cc(-c3ccccc3)cn2-c2cc(-c3cncnc3)ccc2C12CC2 [Example 104]

>  <EC50>
100 to 1000 nM

$$$$
>  <Compound>
CC(=O)N1CC=C(c2ccc3c(c2)-n2cccc2C(=O)N(C)C32CC2)CC1 [Example 48]

>  <EC50>
100 to 1000 nM

$$$$
>  <Compound>
CN1C(=O)c2cc(-c3ccccc3)cn2-c2cc(-c3cccc(S(=O)(=O)N(C)C)c3)ccc2C12CC2 [Example 141]

>  <EC50>
100 to 1000 nM

$$$$
>  <Compound>
CN1C(=O)c2cc(-c3ccccc3)cn2-c2cc(-c3ccc(F)nc3)ccc2C12CC2 [Example 106]

>  <EC50>
< 100 nM

$$$$
